Test: Metabolic stability of the compound in human liver microsomes at 1 umol/L by HPLC-MS/MS analysis
Format: ADME, Microsome
Details: dose 1 µmol/L, read-out: Stability
For each record, write down the corresponding remaining at 1 µM.
Respond numerically; units are % and should not be typed.

Q: Give the reported value of remaining at 1 µM for this record: Cc1sc2c(c1C)C(c1ccc(Cl)cc1)=N[C@@H](CC(=O)N1CCC(c3ccc4c(c3)CN(C3CCC(=O)NC3=O)C4=O)CC1)c1nnc(C)n1-2 (stereo partly specified)
Result: 67

Q: Give the reported value of remaining at 1 µM for this record: Cc1sc2c(c1C)C(c1ccc(Cl)cc1)=N[C@@H](CC(=O)NCCN1CC(N3CCC(c4ccc5c(c4)CN(C4CCC(=O)NC4=O)C5=O)CC3)C1)c1nnc(C)n1-2 (stereo partly specified)
Result: 41

Q: Give the reported value of remaining at 1 µM for this record: Cc1sc2c(c1C)C(c1ccc(Cl)cc1)=N[C@@H](CC(=O)NCCCCCCN1CCC(c3ccc4c(c3)CN(C3CCC(=O)NC3=O)C4=O)CC1)c1nnc(C)n1-2 (stereo partly specified)
Result: 53

Q: Give the reported value of remaining at 1 µM for this record: Cc1sc2c(c1C)C(c1ccc(Cl)cc1)=N[C@@H](CC(=O)NCCCCN1CCC(c3ccc4c(c3)CN(C3CCC(=O)NC3=O)C4=O)CC1)c1nnc(C)n1-2 (stereo partly specified)
Result: 66

###

Assay: Metabolic stability of the compound in mouse liver microsomes at 1 umol/L by HPLC-MS/MS analysis
Format: ADME, Microsome
Details: dose 1 µmol/L, read-out: Stability
For each record, write down the corresponding remaining at 1 µM.
Respond numerically; units are % and should not be typed.

Q: Give the reported value of remaining at 1 µM for this record: Cc1sc2c(c1C)C(c1ccc(Cl)cc1)=N[C@@H](CC(=O)NCCN1CCC(c3ccc4c(c3)CN(C3CCC(=O)NC3=O)C4=O)CC1)c1nnc(C)n1-2 (stereo partly drawn)
Result: 25

Q: Give the reported value of remaining at 1 µM for this record: Cc1sc2c(c1C)C(c1ccc(Cl)cc1)=N[C@@H](CC(=O)NCCN1CCC3(CCC(c4ccc5c(c4)CN(C4CCC(=O)NC4=O)C5=O)CC3)CC1)c1nnc(C)n1-2 (stereo partly drawn)
Result: 44

Q: Give the reported value of remaining at 1 µM for this record: Cc1sc2c(c1C)C(c1ccc(Cl)cc1)=N[C@@H](CC(=O)NCCCN1CCC(c3ccc4c(c3)CN(C3CCC(=O)NC3=O)C4=O)CC1)c1nnc(C)n1-2 (stereo partly drawn)
Result: 27

###

For each record, write down the corresponding solubility.
Test: Aqueous solubility of the compound at 125 ug/ml measured after 24 hrs at pH 4.5 by LC-UV analysis
Format: physicochemical
Settings: buffer, pH 4.5, 24 h, dose 125 µg/ml

Q: Give the reported value of solubility for this record: Cc1sc2c(c1C)C(c1ccc(Cl)cc1)=N[C@@H](CC(=O)NCCN1CCC3(CCC(c4ccc5c(c4)CN(C4CCC(=O)NC4=O)C5=O)CC3)CC1)c1nnc(C)n1-2 (stereo not given in full)
Result: > 190 µM

Q: Give the reported value of solubility for this record: Cc1sc2c(c1C)C(c1ccc(Cl)cc1)=N[C@@H](CC(=O)NCCCCN1CCC(c3ccc4c(c3)CN(C3CCC(=O)NC3=O)C4=O)CC1)c1nnc(C)n1-2 (stereo not given in full)
Result: > 189 µM

Q: Give the reported value of solubility for this record: Cc1sc2c(c1C)C(c1ccc(Cl)cc1)=N[C@@H](CC(=O)Nc1ccc(Cc3ccc4c(c3)CN(C3CCC(=O)NC3=O)C4=O)cc1)c1nnc(C)n1-2 (stereo not given in full)
Result: < 1 µM

Q: Give the reported value of solubility for this record: Cc1sc2c(c1C)C(c1ccc(Cl)cc1)=N[C@@H](CC(=O)NCCN1CC(N3CCC(c4ccc5c(c4)CN(C4CCC(=O)NC4=O)C5=O)CC3)C1)c1nnc(C)n1-2 (stereo not given in full)
Result: > 188 µM

Q: Give the reported value of solubility for this record: Cc1sc2c(c1C)C(c1ccc(Cl)cc1)=N[C@@H](CC(=O)NCCN1CCC(c3ccc4c(c3)CN(C3CCC(=O)NC3=O)C4=O)CC1)c1nnc(C)n1-2 (stereo not given in full)
Result: > 177 µM
